- Tested on: rat hind foot carragheenin-induced oedema
- Test details: Carragheenin-induced oedema test
- Assay type: in vivo
- Condition label: 3 h, 25 mg/kg oral, first experiment, Table X, read-out: percentage inhibition of the inflammation
Let's look at some molecules and their measured change in vivo at 25 mg/kg.
Respond with the bare value in %.

// known answers, use as guide
O=C(O)CCCNS(=O)(=O)c1ccc(Cl)cc1C(=O)c1ccccc1Cl [Compound 1573] :: -17
O=C(O)CCCNS(=O)(=O)c1ccc(Cl)cc1C(=O)c1ccccc1 [Compound 1567] :: -8
O=C(O)CCCCCNS(=O)(=O)c1ccc(Cl)cc1C(=O)c1ccccc1 [Compound 1569] :: -30
O=C(O)CCCCCCCCCCNS(=O)(=O)c1ccc(Cl)cc1C(=O)c1ccccc1 [Compound 1572] :: -18
O=C(O)CNS(=O)(=O)c1ccc(Cl)cc1C(=O)c1ccccc1 [Compound 1565] :: -18
O=C(O)CCCCCNS(=O)(=O)c1ccc(Cl)cc1C(=O)c1ccccc1Cl [Compound 1570] :: -20

Now let's try a different one.
Form: item O=C(O)CCCCCNS(=O)(=O)c1ccc([N+](=O)[O-])cc1C(=O)c1ccccc1 [Compound 1568] ; test system rat hind foot carragheenin-induced oedema; change in vivo at 25 mg/kg: -15

The origin of these recorded values is patent US4980349A.
